System: HS 578T breast
Test Method Notes: NCI tumour cell line growth inhibition, 48 h; in the data active = GI50 below about 0.43 µM; inactive = the rest
Outcomes: active, inactive

{"columns": ["Compound", "Assigned Class"],
 "data": [
  ["CCN(CC)CCOc1ccc(/C=C2\\CC3C4CC=C5C[C@@H](N6CCCC6)CC[C@]5(C)C4CC[C@]3(C)[C@H]2OC(C)=O)cc1OC (stereo not given in full)", "inactive"],
  ["CN1CCN(c2ccc3nc(-c4c5cccccc-5[nH]c4=O)[nH]c3c2)CC1", "inactive"],
  ["CC(=O)c1cc2c(c(O)c1C)C(=O)C(=O)c1c(O)cccc1-2", "active"],
  ["O[N+]1=CC=CCC1=S.On1ccccc1=S.[Zn]", "inactive"],
  ["COc1ccc2c(c1)C(=O)c1c-2n(CCCNCCO)c(=O)c2ccccc12", "active"],
  ["COc1ccc(/C=N/C2=C(C#N)C(c3ccccc3)c3c(ccc4ccccc34)O2)cc1 (stereo not given)", "inactive"],
  ["COc1ccc2nc3cc(Cl)ccc3c(NCCCCCN3CCCCC3)c2c1", "inactive"],
  ["Nc1nc(N)c2cc(CNc3ccc(C(=O)NC(CC(=O)O)C(=O)O)cc3)ccc2n1 (stereo not given)", "inactive"],
  ["CCOC(=O)c1cc2c(c3ccsc13)C1(C)CCC3c4ccc(OC)cc4CCC3C1C2 (stereo not given)", "inactive"],
  ["C[C@@H](O)[C@H]1C(=O)N2C(C(=O)O)=C(SCCN=CN)C[C@H]12", "inactive"]
]}
